Each recorded value in this set is attributed to patent US20050003420.

TESTED_TARGET: T1, BsoBI D246E (UniProt P70985 P70985:1-323, D246E)
T1 sequence: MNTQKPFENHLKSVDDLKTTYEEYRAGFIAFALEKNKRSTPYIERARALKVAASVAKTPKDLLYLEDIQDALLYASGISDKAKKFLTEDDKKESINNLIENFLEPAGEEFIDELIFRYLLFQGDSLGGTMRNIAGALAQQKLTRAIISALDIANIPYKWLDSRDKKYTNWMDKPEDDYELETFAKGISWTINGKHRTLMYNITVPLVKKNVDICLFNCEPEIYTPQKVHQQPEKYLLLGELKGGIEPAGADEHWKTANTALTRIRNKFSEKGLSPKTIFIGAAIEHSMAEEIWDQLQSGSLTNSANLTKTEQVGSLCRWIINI
EXPERIMENT_DESCRIPTION: filter; 4 mM CaCl2; ±3347
EXPERIMENTAL_SETUP: chain copies: 2 inferred; label: 33P 5' end
OUTCOME_MEASURE: Kd (nM)
Please respond with the number in nM and leave the unit unwritten.

# Kd (binder: N (CATAAC, non-specific) (dsDNA) DNA 1: GAGTGTTATGGGTAGCATAACTGAAGTGGGAATATC DNA 2: GATATTCCCACTTCAGTTATGCTACCCATAACACTC ) is 93.2
